For each record, write down the corresponding folding stability dG unfold.
Assay: folding stability dG unfold (combined trypsin and chymotrypsin); higher = more stable
All answers are understood in kcal/mol, so give the number only.

Qu. Tell me the measured folding stability dG unfold of SADPNYHYKYKIKIEIAWFPPDDLEKLPPGMIMIPFDDHWIMIVIKLEPVEREPPPPPPEYDPETGDWKSAG [r14_126_TrROS] , please.
Ans. 3.23

Qu. And for SAGPVVLSPDDTVKIGKKELTFFSDGTVSVKYPDGTGESITVTVDPSSGNITLTETFTEPETGTTPVENSAG [r5_33_JUSTAS] ?
Ans. 1.17

Qu. And for SAGMAKVKLKVEVYFPKTGKPVTMEIEVEGLTLEEIIEEVKKAIEAIGLKIDPDAPVKIVITDIEVYPGSAG [r5_230_TrMRF] ?
Ans. 3.77

Qu. And for SAGGNSMTILFIFPENGWIIRITIKFPDGNGKIDDIDIEREPVPNGQVKYTIRMPDGMEISVEIIPLDSAGG [r13_515_TrROS] ?
Ans. 5.52

Qu. And for SAGGSAGGSAGGMEGFTAVTFTTTTSSNGTRTTTVTTTTPDGTVTTTTTTTPVTPPPNTASAGGSAGGSAGG [r11_998_JUSTAS] ?
Ans. 0.155

Qu. And for SAGGSAGGSGMKITSISKLPDGSYLVTTQDPGKGTPTTVPFSTPEEGKKLKKELEEKGGKVELSAGGSAGGS [r20_177_JUSTAS] ?
Ans. -0.0711

Qu. And for SAGGSAGGSAGLIVTHPDGGVTTLRLTLTFTFEGPVGPPKTVTFEFTLTVAPNGTEVTLESAGGSAGGSAGG [r11_271_TrMRF] ?
Ans. 4.72

Qu. And for SAGGSAGGSGMTTTLTTEPRPDSTVVTTTTTTPTSVTTTTTVYDPDGNVVSTTTTTTPLPATSSAGGSAGGS [r12_710_JUSTAS] ?
Ans. 1.11

Qu. And for SAGGSAGGSAGGKMKPVTIYIKNKDGSTAKLKVINGKVEITFPNGEKKTISAKDLKIYKSAGGSAGGSAGGS [r10_1176_TrROS_Hall] ?
Ans. 1.22

Qu. And for SAGGSAGGSAVLDPSSPRPFEIVEVRRVRFEATVSFAGRPRKLEIEVDLLLVRDPSNGRIGSAGGSAGGSAG [r3_391_TrMRF] ?
Ans. 3.14

Qu. And for SAGMTVTVTLNYPTPGGPVTVRVLRGDEEEVVTVPPTETLTITVTLDPDSGATIEVFFPDGSSKTYPLGSAG [r5_187_JUSTAS] ?
Ans. 3.35

Qu. And for SAGGSAGGSSVSVSFPSSVTKVEPELNDPNLTTFFESPGLVIKVTVVPGTGKVIIEKKPLSELSAGGSAGGS [r12_858_JUSTAS] ?
Ans. 0.342

Qu. And for SAGGSAGGSAPLPPLTPEQVKALVEELKKKGYKVKKVTVVEVNGELYVFVEVDGKLYRIKVSAGGSAGGSAG [r3_395_TrROS_Hall] ?
Ans. 4.23

* * *

Assay: folding stability dG unfold from trypsin proteolysis; higher = more stable
For each record, write down the corresponding folding stability dG unfold.
All answers are understood in kcal/mol, so give the number only.

Qu. Tell me the measured folding stability dG unfold of SAGGSAGGSASAPADETLTAELTSPESDERYTVLVTPEGMTAVDEAGRTTPLSPAVLVSVTAPSAGGSAGGS [r20_35_JUSTAS] , please.
Ans. 0.862

Qu. And for SAGASVEQWSLTSVEVTELPGPEVVVPMTARLPDGTEVVMSGVVGPGSVTLTSPDGSTSTLAIPPALASAGG [r19_84_JUSTAS] ?
Ans. 1.2

Qu. And for SMGSTTVTVELEFEVEDPSVFPPDTTVDVPEEVIEKLRAEGYTVTEITTTVEPTPSGRVRVRVTMTVRVDSA [r9_465_JUSTAS] ?
Ans. 2.95

Qu. And for SAEVEVLPFEFELPNGLRVEVHLVRLPDGTVVAPVLLVEYDPVTGEPRLSRAVAVFDPSTGKVTVLPLDSAG [r14_324_TrMRF] ?
Ans. 3.01

Qu. And for SAGGSAGGSAMPGQKVRLTDELKKAGLEIEEAEVVEVDGKLYIRVNGKIIEIDADAIEEIEPSAGGSAGGSA [r18_445_TrROS_Hall] ?
Ans. 0.366

Qu. And for SAGMVKVSLEKNPNGTPVVTVDVNEEGGPPVTVTLPVDPNETLSKVSAVLKKEGYPLPAGKKISELLSSAGG [r19_263_JUSTAS] ?
Ans. -0.72

Qu. And for SAGGSRTVLLYDPDNPRPYIVEYDPATGTLRIYDPETGELVAEFPIPDLKDIEAPVVPNGILLGAIVDSAGG [r13_720_TrMRF] ?
Ans. 1.03

* * *

For each record, write down the corresponding folding stability dG unfold.
Assay: folding stability dG unfold (combined trypsin and chymotrypsin); higher = more stable

Qu. Tell me the measured folding stability dG unfold of SAGGRYLTLRIPPNHPGDIDIEPVPADDMPPGWGYKIYSPKKGHTQTFPLDNADELLDHPGIDEIEPVSAGG [r19_302_TrROS] , please.
Ans. < -1 kcal/mol

Qu. And for SAGGEFLEKVIEAAIEAAKAGPDAKLELTIPVPGGPVKVTIEVGEDGKVKVTIYKGDKKILEIELPLSAGGS [r16_611_TrMRF] ?
Ans. > 6 kcal/mol

Qu. And for SAGGSAGGSAGGVVKFPDDVLIERVETLPDGTVKIKVYKRIPGKGSPVEEIEFEDPGSSSAGGSAGGSAGGS [r10_934_JUSTAS] ?
Ans. < -1 kcal/mol

* * *

Test: folding stability dG unfold from chymotrypsin proteolysis; higher = more stable
For each record, write down the corresponding folding stability dG unfold.
All answers are understood in kcal/mol, so give the number only.

Qu. Tell me the measured folding stability dG unfold of SAGSIPELIREAFPSKVDRVEVTTEKLPNGTTKTTIKVYVDDPEVAERLAKEINELSGEPLENLTVTEESAG [r5_542_JUSTAS] , please.
Ans. 0.981

Qu. And for SEAEVEVEVLPGPDAVVVRVRLPGRDEVVELRVLDPHPGEGRVLVAVSPGDDDTVVVRDLSPEDIKALLASA [r9_1221_TrMRF] ?
Ans. 0.973

Qu. And for SAGGPDWKTVEVEIQVKDPEDRPEAIEEAEEWAQELAENNPGYKIKGVDVEIWPHNGWYQIRIPITVESAGG [r13_305_TrROS] ?
Ans. 1.01

* * *

Experiment: folding stability dG unfold from chymotrypsin proteolysis; higher = more stable
measure.name: folding stability dG unfold (kcal/mol)
All answers are understood in kcal/mol, so give the number only.

Qu. Tell me the measured folding stability dG unfold of SADSVPIKLTFTFEVPEEIYEAAVKAIEDIFKDLGLEVEFEAKAEPGEEGVKVTVELNLTIPPNNPNLISAG [r14_76_TrMRF] , please.
Ans. 3.31

Qu. And for SAGMTFTTVTVERPLGSPEGKPVSLEEVEEYAKKVAEELEPNGFPVENITIELLPDGTAVITMTIKKPLSAG [r14_470_JUSTAS] ?
Ans. 1.86

Qu. And for SMKIEFLDVKEDGTIVIRLTLLRPDGKPPTKEEAAERAKEIAEILKPYFPDAEFTIEFDPESGEATIVIDSA [r9_485_TrMRF] ?
Ans. 4.7

* * *

Assay: folding stability dG unfold from chymotrypsin proteolysis; higher = more stable
measure.name: folding stability dG unfold (kcal/mol)
All answers are understood in kcal/mol, so give the number only.

Qu. Tell me the measured folding stability dG unfold of SAGGSAGGLLPDQRVRLRLTRTSPDGEPEEATVELTNIPSSITPSSTLTFPGEGDTWEVEEITTSAGGSAGG [r6_560_TrMRF] , please.
Ans. -0.184

Qu. And for SMPTLKITIEKKLPNGEKKKIEIEISLEELLKEARKKKGLESEEEAREALAKELAEKLKEEGYKVKIEPVSA [r9_868_TrROS_Hall] ?
Ans. 0.209

Qu. And for SAGGSSSVTEISISRSRQRPDASGRWVTEPVLPPGVYAPTTVVHENGVLTFNTVYDGKPVTETIPLSSAGGS [r16_500_JUSTAS] ?
Ans. 0.47

Qu. And for SAGGSAGGSAGMVTVGDTEVVIEKDPNSDKYTVTVTPADGTTETLTFDSEEEVERYIEAKSAGGSAGGSAGG [r11_238_JUSTAS] ?
Ans. 1.7

Qu. And for SAGGSGPMTRSITITVTPEIVRDEKGNVTATKYTVTITRSPEVSPEEVEALAAELNAAGIPTTVTPSAGGSA [r2_456_JUSTAS] ?
Ans. 1.65

Qu. And for SAGGSAGGSAGGIEKFLEKHPELKIKKEIKIKIPYKTKDGKEFEVEYKIFYLTSEDEEDSAGGSAGGSAGGS [r10_0_TrMRF] ?
Ans. 2.74

Qu. And for SSMSMKTITIDATFTSEEEAKKYAEEIKKKIPPENIKNISISSTPELVTGDGTYKGEKIKVTITIEIVKKSA [r9_605_JUSTAS] ?
Ans. 1.74

Qu. And for SAGGSTVSVVPFPDYLLVVTTDVRRTPVPDTDTVSTELTTTVTVIPLPDVPPPVLPFLDADGNPYYASAGGS [r8_46_TrMRF] ?
Ans. 0.522

Qu. And for SAGGSAGGSAGGMVRITVEVDGKTYELVVEGMSLEEIEELLKKPNIKKAKVEPLSEEELKSAGGSAGGSAGG [r7_502_TrROS_Hall] ?
Ans. 2.71

Qu. And for SAGGEIEILLEDGTLLRIRVELDEDGNLRVTVELFRLEPPPAPEVVVERREEREERRVLFADSAEDLSAGGS [r16_802_TrROS_Hall] ?
Ans. 2.27

Qu. And for SAGGATLTLKPGDEITLTLTVTVTVTNEDGSTSTFTTTVTLTLRIEPAPPPPPVTVERDADGNLRVTLSAGG [r13_401_TrROS_Hall] ?
Ans. 2.46

Qu. And for SAGGSAGGSAGGPRTIYIPVKVEPDPNGKWKIDIEEIAKNLPDVKITSITPNYIKITFPASAGGSAGGSAGG [r11_771_TrROS] ?
Ans. 1.38

Qu. And for SAGGKPKKKPPPVIEIVDIRVEYDPETKEVRITVKIRLPNGETLTLTITVPPGTTLEELLEKLKELLSSAGG [r13_578_TrROS_Hall] ?
Ans. 2.71

Qu. And for SAGGKTKVIVVKVKPEMTVEEIAKKLAEELKKKGKKVKVEVKVIEKLPNGELYVKVTVKDGKLTIEPSAGGS [r8_7_TrROS_Hall] ?
Ans. 1.42

Qu. And for SAGGSAGGSAGGSKDITITHEHNPNGWYRVKIRFPDNGKKIEIWVPAGRSVEEALDWLFSAGGSAGGSAGGS [r4_393_TrROS] ?
Ans. 3.2

Qu. And for SAMIEILSIEEFTRPDGKKLYKITLKTPDPEKVLEKLIELGVKPEIDPNNPDILIAVFPYEKIEEILKESAG [r14_777_TrMRF] ?
Ans. 5.05

Qu. And for SAGGSAGGSAGGSPKVYVELRFKLPNNLYVEIRYEIDPEKPGYVDWEVRLFDENGNPLGSAGGSAGGSAGGS [r4_297_TrMRF] ?
Ans. 4.74

Qu. And for SAGGGDLEVELVEEREFTFPDGLRRRLLVVRFPDGFLAIPVYVRPPGGGWRLLARFVLRIGPPRPEEGSAGG [r13_494_TrMRF] ?
Ans. 4.29

Qu. And for SPDIEIEPMPNGSYMIEVPVPPDAESIEVPFPGNGRPVTIHRDPDKIHIFFNNPEQIEEIAEAIADGKPISA [r9_515_TrROS] ?
Ans. 0.2

Qu. And for SAGGSAGGSPVVTVENVTRPSDYYTYTFKLPDGTVITLDAKSEEEAREKAKELGLENLNFKTEESAGGSAGG [r6_601_JUSTAS] ?
Ans. 3.88

Qu. And for SSSSMKTITLEKKITSPEEAEALREELLKKGYEVEVKVYPHPDSYIAKITVTIEVPPPPLSPTNPSALLKSA [r9_863_JUSTAS] ?
Ans. 0.913
